Source: patent US5416209A

Would you mind telling me the reported pIC50 of each entry?
- System: HIV virus (HIV-infected normal human blood lymphocytes (PBLs) or alternatively H9 cells)
- test description: HIV infection in cell culture (inhibition of virus-induced syncytia)
- Type: cell-based
- run parameters: Human immunodeficiency virus 1, 72 h, concentration at which 50% of the virus-induced syncytia are suppressed, day 3 to 6 after infection, 37° C.
Answers are plain numbers, as −log10 of the molar value.

Consider the worked cases shown below.
compound	pIC50
O=c1[nH]c2ccc(Cl)cc2c(=NOCc2ccccc2)c2ccccc12	6.15
Cc1ccnc2c1NC(=O)c1cccnc1N2C1CC1 [BIRG 587, reference compound]	7.05

Shift focus to the following entry.
Summary for this compound, CCO/N=c1\c2cc(Cl)ccc2[nH]c(=O)c2ccccc12 : pIC50 is 6.30
